Hello, the source for this data is patent US9067892B2, in case you need it.

- Test system: Thrips Tabaci (onion thrips)
- TEST_SUMMARY: Example B3: Thrips tabaci, mixed population, feeding/residual contact activity, preventive
- Type: in vivo
- ASSAY_SETUP: foliar, 144 h, sunflower leaf discs sprayed, 6 days incubation, mortality
READOUT_TYPE: pest or weed control at 400 ppm

Fill in pest or weed control at 400 ppm for each of the 7 compounds listed.
1. COc1cc(COC2=C(c3cc(C)ccc3C)C(=O)NC23CCN(OC)CC3)cc(OC)c1OC
2. COCCCN1C(=O)C(c2c(C)cc(C)cc2C)=C(O)C12CCN(OC)CC2 [P2.20]
3. COCN1C(=O)C(c2c(C)cc(C)cc2C)=C(O)C12CCN(OC)CC2 [P2.6]
4. CCOC(=O)OC1=C(c2cc(C)c(Cl)cc2C)C(=O)N(C)C12CCN(OC)CC2 [P1.28]
5. CCOC(=O)OC1=C(c2c(C)cc(C)cc2C)C(=O)N(COC)C12CCN(OC)CC2 [P1.3]
6. CON1CCC2(CC1)C(O)=C(c1c(C)cc(C)cc1C)C(=O)N2C [P2.2]
7. COc1ccc(COC2=C(c3cc(C)ccc3C)C(=O)NC23CCN(OC)CC3)cc1

["> 80%", "> 80%", "> 80%", "> 80%", "> 80%", "> 80%", "> 80%"]

Fill in pest or weed control at 400 ppm for each of the 4 compounds listed.
1. CCOC(=O)OC1=C(c2c(C)cc(C)cc2C)C(=O)N(C)C12CCN(OC)CC2 [P1.2]
2. CCOC(=O)OC1=C(c2c(C)cc(C)cc2C)C(=O)N(COCCOC)C12CCN(OC)CC2 [P1.18]
3. CON1CCC2(CC1)NC(=O)C(c1c(C)cc(C)cc1C)=C2OCc1ccccc1
4. COCCOCN1C(=O)C(c2c(C)cc(C)cc2C)=C(O)C12CCN(OC)CC2 [P2.19]

1. > 80%
2. > 80%
3. > 80%
4. > 80%

* * *

- Test system: Aphis craccivora (cowpea aphid)
- TEST_SUMMARY: Example B11: translaminar activity against Aphis craccivora
- Format: in vivo
- ASSAY_SETUP: 120 h, French bean leaves, aphids on lower side, upper side painted, 5 days, mortality
- Procedure: Translaminar Activity Against Aphis craccivora (Cowpea Aphid) French bean leaves (Phaseolus vulgaris) are infested with about 20 mixed age individuals on the lower leaf side using clip cages. 1 day after the infestation, the upper side of the leaves is treated with the test solution by painting. 5 days later, samples are checked for mortality.
READOUT_TYPE: pest or weed control at 400 ppm

> print(dat)
                                   compound  result
1  COCCN1C(=O)C(c2c(C)cc(C)cc2C)=C(O)C12CCN(OC)CC2 [P2.7]   > 80%
2  CCOC(=O)OC1=C(c2c(C)cc(C)cc2C)C(=O)N(C)C12CCN(OC)CC2 [P1.2]   > 80%
3  CCOC(=O)OC1=C(c2c(C)cc(C)cc2C)C(=O)N(COC)C12CCN(OC)CC2 [P1.3]   > 80%

Fill in pest or weed control at 400 ppm for each of the 2 compounds listed.
1. COCN1C(=O)C(c2c(C)cc(C)cc2C)=C(O)C12CCN(OC)CC2 [P2.6]
2. COCCOCN1C(=O)C(c2c(C)cc(C)cc2C)=C(O)C12CCN(OC)CC2 [P2.19]

1: > 80%; 2: > 80%

Fill in pest or weed control at 400 ppm for each of the 3 compounds listed.
1. CCOC(=O)OC1=C(c2c(C)cc(C)cc2Br)C(=O)N(C)C12CCN(OC)CC2 [P1.11]
2. CCOCN1C(=O)C(c2c(C)cc(C)cc2C)=C(OC(=O)OCC)C12CCN(OC)CC2 [P1.4]
3. CCOC(=O)OC1=C(c2c(C)cc(C)cc2C)C(=O)N(CC2CC2)C12CCN(OC)CC2 [P1.5]

1. > 80%
2. > 80%
3. > 80%

Fill in pest or weed control at 400 ppm for each of the 3 compounds listed.
1. CCOC(=O)OC1=C(c2c(C)cc(C)cc2C)C(=O)N(COCCOC)C12CCN(OC)CC2 [P1.18]
2. CON1CCC2(CC1)C(O)=C(c1c(C)cc(C)cc1C)C(=O)N2C [P2.2]
3. CON1CCC2(CC1)C(O)=C(c1c(C)cc(C)cc1Br)C(=O)N2C [P2.14]

["> 80%", "> 80%", "> 80%"]

* * *

READOUT_TYPE: melting point

Look over these answered cases.
> print(dat)
                                   compound         result
1  CCOC(=O)OC1=C(c2c(C)cc(C)cc2C)C(=O)N(CC)C12CCN(OC)CC2 [P1.8]  101 to 103 °C
2  CON1CCC2(CC1)C(O)=C(c1cc(C)ccc1C)C(=O)N2C [P2.1]  121 to 123 °C
3  CON1CCC2(CC1)C(O)=C(c1cc(C)c(C)cc1Cl)C(=O)N2C [P2.26]  191 to 192 °C
4  CON1CCC2(CC1)C(O)=C(c1cc(C)c(C)cc1Br)C(=O)N2C [P2.23]  191 to 193 °C
5  CON1CCC2(CC1)C(O)=C(c1c(C)cc(C)cc1C)C(=O)N2CC1CC1 [P2.8]  223 to 225 °C
6  CON1CCC2(CC1)C(O)=C(c1cc(C)c(C)cc1C)C(=O)N2C [P2.25]  183 to 186 °C

Fill in melting point for each of the 4 compounds listed.
1. CCOC(=O)OC1=C(c2cc(C)c(C)cc2Cl)C(=O)N(C)C12CCN(OC)CC2 [P1.22]
2. CCN1C(=O)C(c2c(C)cc(C)cc2C)=C(O)C12CCN(OC)CC2 [P2.11]
3. CCOC(=O)OC1=C(c2cc(C)ccc2C)C(=O)N(C)C12CCN(OC)CC2 [P1.1]
4. CCOC(=O)OC1=C(c2cc(C)c(C)cc2Br)C(=O)N(C)C12CCN(OC)CC2 [P1.20]

1: 149 to 150 °C; 2: 218 to 221 °C; 3: 96 to 110 °C; 4: 158 to 159 °C
